test: in vivo; conditions: male, Sprague-Dawley, rat, plasma, po, 10 mg/kg
Assay Endpoint: half-life (h)
Answers are plain numbers, in h.

> print(dat)
                                   compound  data.value
1  CCC(=O)N[C@@H]1CCCc2c(-c3ccc4c(c3)CCC(=O)N4C)cncc21 [Control Compound, reference compound]        4.31

Batch of 2 compounds: report half-life for each.
1. CCC(=O)N[C@@H]1CCOc2c(-c3ccc4c(ccc(=O)n4C)c3)cncc21
2. CCC(=O)N[C@@H]1CCCc2c(-c3cc(C)c4c(ccc(=O)n4C)c3)cncc21

RESULT:
[5.91, 4.77]

---

Target: human CYP11B1 enzyme (Homo sapiens)
Construct: the ORF of human CYP11B1 or CYP11B2 were transfected into G402 cells
Sequence (P15538 25-503): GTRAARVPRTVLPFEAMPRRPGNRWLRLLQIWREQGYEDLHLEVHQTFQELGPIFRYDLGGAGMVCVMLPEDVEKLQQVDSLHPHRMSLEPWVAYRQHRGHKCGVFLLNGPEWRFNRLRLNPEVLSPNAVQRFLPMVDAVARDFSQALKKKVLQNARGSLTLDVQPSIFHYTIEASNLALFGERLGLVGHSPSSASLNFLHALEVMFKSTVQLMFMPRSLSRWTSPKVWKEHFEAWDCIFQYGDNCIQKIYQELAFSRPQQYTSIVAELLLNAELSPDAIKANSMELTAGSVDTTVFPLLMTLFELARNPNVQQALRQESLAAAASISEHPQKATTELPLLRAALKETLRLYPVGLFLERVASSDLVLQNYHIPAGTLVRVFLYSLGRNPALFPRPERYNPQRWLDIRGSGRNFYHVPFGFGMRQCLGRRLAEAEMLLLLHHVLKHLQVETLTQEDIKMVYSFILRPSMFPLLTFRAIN
Experiment: Enzyme inhibition activity assay in G402 cells stably expressing human CYP11B1 (cortisol production from 11-DC, LC/MS)
Details: 1 µM 11-DC, 16 hours, cortisol detected
Excerpt: G402 cells (ATCC, CRL 1440) are epithelioid cells isolated from the kidney of a patient with renal failure and are a type of leiomyoblastoma. […] Enzyme Inhibition Activity Assay: CYP11B1 G402/CYP11B2 G402 cells were spread out flatly in cell culture plates. […] Cells were then collected, and specific products were detected using LC/MS methods with an AB SCIEX TRIPLE QUAD 5500+, CTO-40S instrument (CYP11B2 enzyme detecting aldosterone; CYP11B1 enzyme detecting cortisol). […]
Field: label. Allowed values: YES (IC50 < 1000 nM) or NO (IC50 >= 1000 nM).

Here's what some known entries look like.
> print(dat)
                                   compound  category
1  CNC(=O)N[C@@H]1CCCc2c(-c3ccc4c(c3)OCC(=O)N4C)cncc21 [Compound A24]        NO
2  CCC(=O)N[C@@H]1CCCc2c(-c3ccc4c(c3)OCC(=O)N4C)cncc21 [Compound C09]        NO

QUERY: Here's an entry: CN1CCN([C@@H]2CCCc3c(-c4ccc5c(c4)CCC(=O)N5C)cncc32)C1=O [Compound D10] . Is its IC50 below 1000 nM?
RESULT: YES

QUERY: How about this compound: COC(=O)N[C@@H]1CCOc2c(-c3ccc4c(c3)cc(C#N)n4C)cncc21 [Compound A35]
RESULT: YES

QUERY: Proceed to [2H]C([2H])([2H])NC(=O)N[C@@H]1CCCc2c(-c3cc(F)c4c(ccc(=O)n4C)c3)cncc21 [Compound A22]
RESULT: NO

QUERY: Then what about the compound CCC(=O)N[C@@H]1CCCc2c(-c3ccc4c(c3)CCCC(=O)N4C)cncc21 [Compound C15] ?
RESULT: NO

QUERY: // repeat for [2H]C([2H])([2H])OC(=O)N[C@@H]1CCCc2c(-c3ccc4c(c3)CCC(=O)N4C)cncc21 [Compound D15] and report
RESULT: YES

QUERY: Follow-up item: CN(C)C(=O)N[C@@H]1CCCc2c(-c3ccc4c(c3)COC(=O)N4C)cncc21 [Compound A33]
RESULT: YES

QUERY: Same thing, different compound: CCC(=O)N[C@@H]1CCCc2c(-c3ccc4c(c3)CNC(=O)N4C)cncc21 [Compound C06]
RESULT: NO

QUERY: Would you mind doing [2H]C([2H])([2H])OC(=O)N[C@@H]1CCOc2c(-c3ccc4c(ccc(=O)n4C)c3)cncc21 [Compound A39] as well?
RESULT: NO

QUERY: What about this compound? [2H]C([2H])([2H])OC(=O)N[C@@H]1CCCc2c(-c3cc(F)c4c(ccc(=O)n4C)c3)cncc21 [Compound A48]
RESULT: YES

QUERY: What do you have for [2H]C([2H])([2H])NC(=O)N[C@@H]1CCOc2c(-c3ccc4c(c3)COC(=O)N4C)cncc21 [Compound A18] ?
RESULT: YES

QUERY: # iterate: CN1C(=O)CCc2cc(-c3cncc4c3CCC[C@H]4N3CCOC3=O)ccc21 [Compound D12]
RESULT: YES

---

assay: Pharmacokinetic determination in mice after gavage administration (P.O.); format: in vivo; settings: male, CD-1, mouse, po, 10 mg/kg, plasma
For each entry below, report its MRT inf value.
Give bare numbers, in h.

> print(dat)
                                   molecule  assay.endpoint  data.value
1  CCC(=O)N[C@@H]1CCCc2c(-c3ccc4c(c3)COC(=O)N4C)cncc21         MRT inf        4.36
2  CCC(=O)N[C@@H]1CCCc2c(-c3ccc4c(c3)CCC(=O)N4C)cncc21 [Control Compound, reference compound]         MRT inf        3.59

// each molecule listed below needs its MRT inf
1. CCC(=O)N[C@@H]1CCCc2c(-c3cc(F)c4c(c3)COC(=O)N4C)cncc21
2. CCC(=O)N[C@@H]1CCCc2c(-c3cc(F)c4c(ccc(=O)n4C)c3)cncc21

RESULT:
1: 4.78; 2: 5.07

QUERY: Name the reported MRT inf value associated with the molecule `[2H]C([2H])([2H])NC(=O)N[C@@H]1CCCc2c(-c3ccc4c(c3)COC(=O)N4C)cncc21`
RESULT: 2.37

---

Field: IC50. Provide a value for each of the compounds that follow.
Biological target: human CYP11B2 enzyme (Homo sapiens)
Construct: the ORF of human CYP11B1 or CYP11B2 were transfected into G402 cells
Sequence (P19099 25-503): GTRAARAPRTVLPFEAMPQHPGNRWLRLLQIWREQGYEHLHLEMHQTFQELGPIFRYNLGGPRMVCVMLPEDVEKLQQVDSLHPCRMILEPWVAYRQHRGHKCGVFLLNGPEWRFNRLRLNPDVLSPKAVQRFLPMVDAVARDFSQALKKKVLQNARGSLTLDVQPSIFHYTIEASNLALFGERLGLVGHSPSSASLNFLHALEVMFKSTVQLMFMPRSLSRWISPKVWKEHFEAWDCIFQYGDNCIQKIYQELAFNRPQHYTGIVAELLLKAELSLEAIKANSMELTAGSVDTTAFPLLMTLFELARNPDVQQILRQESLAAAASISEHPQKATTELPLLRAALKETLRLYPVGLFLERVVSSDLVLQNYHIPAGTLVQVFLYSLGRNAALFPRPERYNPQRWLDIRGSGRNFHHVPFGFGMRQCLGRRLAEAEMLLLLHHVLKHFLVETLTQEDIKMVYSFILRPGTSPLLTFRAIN
Experiment: Enzyme inhibition activity assay in G402 cells stably expressing human CYP11B2 (aldosterone production from 11-DOC, LC/MS)
Settings: 1 µM 11-DOC, 16 hours, aldosterone detected
Excerpt: G402 cells (ATCC, CRL 1440) are epithelioid cells isolated from the kidney of a patient with renal failure and are a type of leiomyoblastoma. […] Enzyme Inhibition Activity Assay: CYP11B1 G402/CYP11B2 G402 cells were spread out flatly in cell culture plates. […] Cells were then collected, and specific products were detected using LC/MS methods with an AB SCIEX TRIPLE QUAD 5500+, CTO-40S instrument (CYP11B2 enzyme detecting aldosterone; CYP11B1 enzyme detecting cortisol). […]
One number for each entry, in nM.

Here is how some compounds turned out for IC50.
> print(dat)
                                    compound  unit.of.measure  data.value
 1  CCC(=O)N[C@@H]1CCCc2c(-c3cnc4c(c3)cc(C#N)n4C)cncc21               nM        11.4
 2  CCC(=O)N[C@@H]1CCOc2c(-c3ccc4c(c3)OCC(=O)N4C)cncc21               nM        35.5
 3  CCC(=O)N[C@@H]1CCCc2c(-c3ccc4c(ccc(=O)n4C)c3)cncc21               nM        19.2
 4  CCC(=O)N[C@@H]1CC=Cc2c(-c3ccc4c(c3)CCC(=O)N4C)cncc21 [Compound A04-P1]               nM         5.6
 5  CCC(=O)N[C@@H]1CCOc2c(-c3ccc4c(c3)cc(C#N)n4C)cncc21 [Compound A10-P2]               nM         1.8
 6  [2H]C([2H])([2H])NC(=O)N[C@@H]1CCOc2c(-c3ccc4c(ccc(=O)n4C)c3)cncc21               nM        23.1
 7  CCC(=O)N[C@@H]1CCCc2c(-c3cc(F)c4c(c3)COC(=O)N4C)cncc21               nM         187
 8  CCC(=O)N[C@@H]1CCCc2c(-c3ccc4c(c3)OCC(=O)N4C)cncc21               nM          31
 9  CN(C)C(=O)N[C@@H]1CCCc2c(-c3ccc4c(c3)CCC(=O)N4C)cncc21               nM         7.4
10  [2H]C([2H])([2H])OC(=O)N[C@@H]1CCOc2c(-c3cc(Cl)c4c(ccc(=O)n4C)c3)cncc21               nM        13.6

Below is a list of compounds. For each, state its recorded IC50.
1. CN1CCN([C@@H]2CCCc3c(-c4ccc5c(c4)CCC(=O)N5C)cncc32)C1=O
2. CCC(=O)N[C@@H]1CCCc2c(-c3ccc4c(c3)cc(F)c(=O)n4C)cncc21

RESULT:
4.7
43.3
